B1: Pre-mRNA-processing factor 40 homolog B, residues 274 to 332; numbered along this chain, Q6NWY9 (parent)
chain: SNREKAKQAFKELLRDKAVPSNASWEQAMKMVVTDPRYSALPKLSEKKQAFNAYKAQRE

Variants of: B1
ASSAY_EXPLANATION: abundance fitness (aPCA) (normalised: wild type 0, dead -1); higher = more abundant; growth selection in yeast, the domain comes from the species named
CONDITION_DETAILS: Homo sapiens
Classify on abundance fitness using I (below -0.4), II (-0.4 to below -0.1), III (-0.1 or more)

> print(dat)
    mutation.spec  group.label
 1            S1G          III
 2            A6H           II
 3           N22Y            I
 4           Y38L            I
 5           Q57W           II
 6           P36A           II
 7           A18R          III
 8           L14M            I
 9           S21P           II
10           E26I            I
11            R3M          III
12            A9M           II
13           K30S           II
14           L41K           II
15           K47E            I

Just for reference, the Human Domainome abundance scans (Beltran et al. 2025) is where these values come from.
